# credit: PubChem BioAssay (NCI)

Experiment: NCI Yeast Anticancer Drug Screen. Data for the bub3 strain (AID 167)
Settings: S. cerevisiae bub3 mutant strain, at 5.0 µM (retest, dose inferred, filed as 0.5), hits give high values
The panel holds about 79,000 compounds, 15% with a hit somewhere; the sample as a whole holds those more often.
reported endpoint: growth inhibition (%)

1. COc1cccc2c1C(=O)c1c(O)c3c(c(O)c1C2=O)C[C@@](O)(/C(C)=N\NC=O)C[C@@H]3OC1CC(N)C(O)C(C)O1 (stereo partly specified) :: 17
2. CNC1=C2NC(=O)/C(C)=C\C=C\C(C)C(O)C(C)C(O)C(C)C(OC(C)=O)C(C)C(OC)/C=C/OC3(C)Oc4c(C)c(O)c(c(c4C3=O)C1=O)C2=O (stereo unspecified) :: -2
3. O=C(NCCCCCCNC(=O)n1cc(F)c(=O)[nH]c1=O)NC1C(O)OC(CO)C(O)C1O (stereo unspecified) :: 22
4. c1cc[c]([Ge]([O]c2cccc3cccnc23)([c]2ccccc2)[c]2ccccc2)cc1 :: 7
5. O=S(=O)(CCNCCCCC1CCCCC1)SCCNCCCCC1CCCCC1 :: 16
6. CN(C(=O)C(Cl)Cl)c1ccc(-c2csc(-c3ccccc3)n2)cc1 :: 2
7. CC1CN(C(=S)NNC(C)c2cc3ccccc3cn2)CC(C)O1 (stereo unspecified) :: 39
8. O=S(=O)(CC(Br)CCl)c1ccccc1 (stereo unspecified) :: 5
9. CCC1(CC)COC(C)(C(=O)O)OC1 :: -65
10. C1=CC2C(c3cccc4ccccc34)O[C@H]2O1 (stereo partly specified) :: 3
11. CC(N1CCOCC1)C(O)(c1ccccc1)c1ccccn1 (stereo unspecified) :: -2

----------
Experiment: NCI Yeast Anticancer Drug Screen. Data for the mec2-1 strain (AID 157)
Settings: S. cerevisiae mec2-1 strain, at 5.0 µM (retest, dose inferred, filed as 0.5), hits give high values
This is part of a sample that, as a whole, favours compounds with a hit. Of some 79,000 tested, about 15% had one in any assay.
reported endpoint: growth inhibition (%)

1. CCCCCCCCCCCCCCCCCC[n+]1ccc(C(C)CC)cc1 (configuration not stated) :: 12
2. C=C1CC(Cn2cc(C)c(=O)[nH]c2=O)(c2ccc(Cl)cc2)OC1=O (configuration not stated) :: -11
3. Cc1ccc(-[n+]2cc([O-])on2)cc1 :: -10
4. O=c1[nH]ncc(SCc2ccccc2)c1SCc1ccccc1 :: 3
5. COC(=O)c1cc[nH]c(=O)c1 :: -48
6. CCN(CC)C(=S)Nc1ccc(Cl)cc1 :: -50
7. CC(C)(C)CC(C)(C)c1ccc(O)cc1O :: 7

----------
Test: NCI Yeast Anticancer Drug Screen. Data for the mlh1 rad18 strain (AID 175)
Conditions: S. cerevisiae mlh1 rad18 strain growth inhibition; at 50.0 µM (retest, dose inferred, filed as 5.0); hits give high values
About 79,000 compounds went through this panel and 15% of them were active in at least one assay; those are over-represented in the sample as a whole.
So basically: growth inhibition at 40% or higher? That is Condition met. Lower than 40%? That is Condition not met.

1) CCOC(=O)Cc1csc(/N=C\c2c(O)c3ccccc3oc2=O)n1 :: Condition met
2) CC1(C)CC(=O)C2=C(C1)Nc1ccccc1CC2c1c[nH]c2ccccc12 (configuration not stated) :: Condition met
3) Clc1cc(Cl)c2cc3cccc[n+]3cc2c1Cl :: Condition met
4) O=c1cccc(C2CCc3cc(O)ccc3C2)[nH]1 (configuration not stated) :: Condition not met
5) Cc1ccc(-n2cc(-c3ccc(Cl)cc3)c3c(NN)ncnc32)cc1 :: Condition met
6) O=C(Nn1cc(F)c(=O)[nH]c1=O)C12CC3CC(CC(C3)C1)C2 :: Condition met
7) c1cc2c(cc1CCCCCCCCCCc1ccc3c(c1)CCC3)CCC2 :: Condition not met
8) CCCCCCCCCCCCCC(=O)CC(=O)c1c(O)cccc1O :: Condition not met
9) C1=Cc2ccccc2/C1=C/c1ccccc1 :: Condition met
10) CCN(CC)CCCC(=O)Nc1cc(OC)cc2cccnc12 :: Condition not met
11) CCCCCC/C=C/C#CCCCCCCCC(=O)O :: Condition met
12) CN(C)c1ccc(C2(Cl)c3ccccc3N(Cc3ccccc3)c3ccccc32)cc1 :: Condition met
